# Tested on: NCI-H460
# experiment.description: Cytotoxicity against human NCI-H460 cells after 48 hrs by sulforhodamine B assay
# Format: functional
# experimental.parameters: NCI-H460, 48 h
Provide the recorded GI50 for the entries that follow.
State the value with its unit after it.

Which measured GI50 value corresponds to CC(C)C[C@H]1OC(=O)[C@H](Cc2ccc(OC(C)(C)C)cc2)NC(=O)[C@H](C)OC(=O)[C@@H](C(C)C)NC(=O)[C@@H](CC(C)C)OC(=O)[C@H](C(C)C)NC(=O)[C@H](C)OC(=O)[C@@H](C(C)C)NC(=O)[C@@H](CC(C)C)OC(=O)[C@H](C(C)C)NC(=O)[C@H](C)OC(=O)[C@@H](C(C)C)NC1=O ?
23 nM

Which measured GI50 value corresponds to CC(C)[C@@H]1NC(=O)[C@H](C)OC(=O)[C@@H](C(C)C)NC(=O)[C@@H](CC2CCCCC2)OC(=O)[C@H](C(C)C)NC(=O)[C@H](C)OC(=O)[C@@H](C(C)C)NC(=O)[C@@H](CC2CCCCC2)OC(=O)[C@H](C(C)C)NC(=O)[C@H](C)OC(=O)[C@@H](C(C)C)NC(=O)[C@@H](CC2CCCCC2)OC1=O ?
314 nM

Which measured GI50 value corresponds to CC(C)C[C@H]1OC(=O)[C@H](C(C)C)NC(=O)[C@H](C)OC(=O)[C@@H](C(C)C)NC(=O)[C@@H](CC(C)C)OC(=O)[C@H](C(C)C)NC(=O)[C@H](C)OC(=O)[C@@H](C(C)C)NC(=O)[C@@H](CC2CCCCC2)OC(=O)[C@H](Cc2ccc(OC(C)(C)C)cc2)NC(=O)[C@H](C)OC(=O)[C@@H](C(C)C)NC1=O ?
91 nM
